- Test system: Staphylococcus aureus
- method_description: Antimicrobial activity against Staphylococcus aureus SA38 after 18 to 24 hrs by spectrophotometry based broth micro dilution assay
- Assay type: functional
- condition: read-out: MIC100
reported_endpoint: MIC (µM)
Field: numeric (µM). Do not append units.

Ask: If you can, please state the reported MIC value of N=C(N)NCCC[C@H](NC(=O)c1cccc(-c2cccc(NC(=O)[C@H](Cc3c[nH]c4ccccc34)NC(=O)[C@@H](N)Cc3ccccc3)c2)c1)C(=O)NCCNC(=N)N .
Reply: 15.6

Ask: If you can, please state the reported MIC value of COC(=O)[C@H](CCCCN)NC(=O)c1cccc(-c2cccc(NC(=O)[C@@H](N)Cc3c[nH]c4ccccc34)c2)c1 .
Reply: 31.2

Ask: If you can, please state the reported MIC value of COC(=O)[C@H](CCCCN)NC(=O)c1cccc(-c2cccc(NC(=O)[C@H](Cc3c[nH]c4ccccc34)NC(=O)[C@@H](N)Cc3ccccc3)c2)c1 .
Reply: 31.2

Ask: If you can, please state the reported MIC value of NCCNC(=O)c1cccc(-c2cccc(NC(=O)[C@@H](N)Cc3c[nH]c4ccccc34)c2)c1 .
Reply: 125

Ask: If you can, please state the reported MIC value of NCCCC[C@H](NC(=O)c1cccc(-c2cccc(NC(=O)[C@@H](N)Cc3c[nH]c4ccccc34)c2)c1)C(=O)NCCN .
Reply: 31.2

Ask: If you can, please state the reported MIC value of N=C(N)NCCNC(=O)c1cccc(-c2cccc(NC(=O)[C@@H](N)Cc3c[nH]c4ccccc34)c2)c1 .
Reply: 62.5

###

- Test system: Lipid bilayer
- method_description: Binding affinity to zwitterionic tethered bilayer lipid membranes assessed as increase in membrane capacitance changes at 10 uM by electrochemical impedance spectroscopic analysis
The source made the active and inactive calls. No cut-off for these calls is given here.
Your response should consist of one outcome taken from yes for active, no for inactive

Ask: I'd appreciate the recorded outcome for NCCCC[C@H](NC(=O)c1cccc(-c2cccc(NC(=O)[C@H](Cc3c[nH]c4ccccc34)NC(=O)[C@@H](N)Cc3ccccc3)c2)c1)C(=O)NCCN from this test.
Reply: yes

Ask: I'd appreciate the recorded outcome for N=C(N)NCCNC(=O)c1cccc(-c2cccc(N)c2)c1 from this test.
Reply: no

Ask: I'd appreciate the recorded outcome for COC(=O)[C@H](CCCNC(=N)N)NC(=O)c1cccc(-c2cccc(NC(=O)[C@H](Cc3c[nH]c4ccccc34)NC(=O)[C@@H](N)Cc3ccccc3)c2)c1 from this test.
Reply: yes

Ask: I'd appreciate the recorded outcome for N=C(N)NCCNC(=O)c1cccc(-c2cccc(NC(=O)[C@H](Cc3c[nH]c4ccccc34)NC(=O)[C@@H](N)Cc3ccccc3)c2)c1 from this test.
Reply: yes

Ask: I'd appreciate the recorded outcome for COC(=O)[C@H](CCCCN)NC(=O)c1cccc(-c2cccc(NC(=O)[C@H](Cc3c[nH]c4ccccc34)NC(=O)[C@@H](N)Cc3ccccc3)c2)c1 from this test.
Reply: yes

###

Please go through the items and note down their MIC.
- Tested on: Staphylococcus aureus
- method_description: Antimicrobial activity against Staphylococcus aureus SA38 after 18 to 24 hrs by spectrophotometry based broth micro dilution assay
- Format: functional
- condition: read-out: MIC100
Field: numeric (µM). Do not append units.

Ask: If you can, please state the reported MIC value of NCCCC[C@H](NC(=O)c1cccc(-c2cccc(NC(=O)[C@H](Cc3c[nH]c4ccccc34)NC(=O)[C@@H](N)Cc3ccccc3)c2)c1)C(=O)NCCN .
Reply: 31.2

Ask: If you can, please state the reported MIC value of COC(=O)[C@H](CCCNC(=N)N)NC(=O)c1cccc(-c2cccc(NC(=O)[C@@H](N)Cc3c[nH]c4ccccc34)c2)c1 .
Reply: 62.5

Ask: If you can, please state the reported MIC value of N=C(N)NCCNC(=O)[C@H](CCCCN)NC(=O)c1cccc(-c2cccc(NC(=O)[C@H](Cc3c[nH]c4ccccc34)NC(=O)[C@@H](N)Cc3ccccc3)c2)c1 .
Reply: 31.2

Ask: If you can, please state the reported MIC value of NCCNC(=O)c1cccc(-c2cccc(NC(=O)[C@H](Cc3c[nH]c4ccccc34)NC(=O)[C@@H](N)Cc3ccccc3)c2)c1 .
Reply: 62.5

Ask: If you can, please state the reported MIC value of COC(=O)[C@H](CCCNC(=N)N)NC(=O)c1cccc(-c2cccc(NC(=O)[C@H](Cc3c[nH]c4ccccc34)NC(=O)[C@@H](N)Cc3ccccc3)c2)c1 .
Reply: 31.2

Ask: If you can, please state the reported MIC value of N=C(N)NCCNC(=O)c1cccc(-c2cccc(NC(=O)[C@H](Cc3c[nH]c4ccccc34)NC(=O)[C@@H](N)Cc3ccccc3)c2)c1 .
Reply: 15.6

Ask: If you can, please state the reported MIC value of N=C(N)NCCNC(=O)c1cccc(-c2cccc(N)c2)c1 .
Reply: 62.5
